EXPERIMENTAL_TARGET: human recombinant MC4R (CHO-K1/Gα15 stable cell line, GenScript) (human, UniProt P32245 1-332)
Sequence (P32245 whole entry): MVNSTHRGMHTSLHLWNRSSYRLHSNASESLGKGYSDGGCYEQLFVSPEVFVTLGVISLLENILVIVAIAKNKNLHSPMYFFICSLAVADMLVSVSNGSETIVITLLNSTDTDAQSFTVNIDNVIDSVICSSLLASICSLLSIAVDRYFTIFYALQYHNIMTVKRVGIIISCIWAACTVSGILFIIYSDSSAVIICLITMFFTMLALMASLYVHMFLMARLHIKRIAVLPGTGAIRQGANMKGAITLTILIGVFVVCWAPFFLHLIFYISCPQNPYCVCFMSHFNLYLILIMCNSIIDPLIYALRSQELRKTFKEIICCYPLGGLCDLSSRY
ASSAY_REMARKS: cell-based or functional assay
Starred links: 1 amine or outer side, 2 acyl side, 3 side chain; linkers in the order of their positions; H or OH if unused. Positions of bridges follow the written chain, without caps; N, C: chain ends. Non-standard residues stand in square brackets, D forms with d. Primed or numbered codes have the meaning given here. *: point of attachment. Hgln = homoglutamine, NC(=O)CCC[C@H](N[*:1])C(=O)[*:2]; Benzoyl(3,5-(OH)2) = O=C(c1cc(O)cc(O)c1)*; Lys(N3) = [N-]=[N+]=NCCCC[C@H](N)C(=O)O; Orn(N3) = [N-]=[N+]=NCCC[C@H](N)C(=O)O; dNMeF = CN[C@H](Cc1ccccc1)C(=O)O; PEG8′ = polyethylene glycol-8; Nle = CCCC[C@H](N)C(=O)O; Octanoyl = CCCCCCCC(=O)*; Pra = C#CC[C@H](N)C(=O)O
PROPERTY_NAME: MC4R IC50 (µM)

Some solved cases for reference:
BINDER	PROPERTY_NAME	ASSAY_VALUE
{Benzoyl(3,5-(OH)2)}-[Nle][Lys(N3)]H[dF]RW[Pra]K-NH2 (triazole 2-7; not fully specified; printed as HyBA-Nle-[Lys(N3)-His-DPhe-Arg-Trp-Pra]-Lys-NH2) [KR-053]	MC4R IC50	0.0398
Ac-[Nle]EHFRWGKC-NH2 (not fully specified (bridges); printed as -Cyclo(-Ac-Nle-Glu-His-Phe-Arg-Trp-Gly-Lys-Cys)-NH2; also: cyclo(...) including Ac, ring type and places not given here) [KR-036]	MC4R IC50	0.0406
Ac-SMEHFRWGKPV-NH2 [KR-002]	MC4R IC50	0.0349
Ac-EHFRWGKPV-NH2 [KR-004]	MC4R IC50	0.0342
Ac-[Nle][Orn(N3)]H[dF]RW[Pra]K-NH2 (triazole 2-7; not fully specified; printed as Ac-Nle-[Orn(N3)-His-DPhe-Arg-Trp-Pra]-Lys-NH2) [KR-065]	MC4R IC50	0.036

(1) Ac-[Nle][Lys(N3)]H[dNMeF]RW[Pra]-NH2 (triazole 2-7) [KR-044]
(2) Ac-[Nle][Lys(N3)]H[dF]RW[Pra][Hgln]-NH2 (triazole 2-7; not fully specified; printed as Ac-Nle-[Lys(N3)-His-DPhe-Arg-Trp-Pra]-Hgln-NH2) [KR-057]
(3) {Octanoyl-PEG8′}-GGSYSMEHFRWGKPV-NH2 [KR-017]
(4) Ac-[Lys(N3)]EHFRWG[Pra]-NH2 (triazole 1-8) [KR-010]
Query: Given 4 binders, produce a descending ranking by MC4R IC50. The reply should contain the labels ordered as requested.
Response: 4, 1, 3, 2
(4: 0.452 µM, 1: 0.238 µM, 3: 0.139 µM, 2: 0.0335 µM)
